# SYSTEM: T1, EsCas13d, nuclease-dead (Eubacterium siraeum, UniProt B0MS50, R295A;H300A;R849A;H854A)
# T1 sequence: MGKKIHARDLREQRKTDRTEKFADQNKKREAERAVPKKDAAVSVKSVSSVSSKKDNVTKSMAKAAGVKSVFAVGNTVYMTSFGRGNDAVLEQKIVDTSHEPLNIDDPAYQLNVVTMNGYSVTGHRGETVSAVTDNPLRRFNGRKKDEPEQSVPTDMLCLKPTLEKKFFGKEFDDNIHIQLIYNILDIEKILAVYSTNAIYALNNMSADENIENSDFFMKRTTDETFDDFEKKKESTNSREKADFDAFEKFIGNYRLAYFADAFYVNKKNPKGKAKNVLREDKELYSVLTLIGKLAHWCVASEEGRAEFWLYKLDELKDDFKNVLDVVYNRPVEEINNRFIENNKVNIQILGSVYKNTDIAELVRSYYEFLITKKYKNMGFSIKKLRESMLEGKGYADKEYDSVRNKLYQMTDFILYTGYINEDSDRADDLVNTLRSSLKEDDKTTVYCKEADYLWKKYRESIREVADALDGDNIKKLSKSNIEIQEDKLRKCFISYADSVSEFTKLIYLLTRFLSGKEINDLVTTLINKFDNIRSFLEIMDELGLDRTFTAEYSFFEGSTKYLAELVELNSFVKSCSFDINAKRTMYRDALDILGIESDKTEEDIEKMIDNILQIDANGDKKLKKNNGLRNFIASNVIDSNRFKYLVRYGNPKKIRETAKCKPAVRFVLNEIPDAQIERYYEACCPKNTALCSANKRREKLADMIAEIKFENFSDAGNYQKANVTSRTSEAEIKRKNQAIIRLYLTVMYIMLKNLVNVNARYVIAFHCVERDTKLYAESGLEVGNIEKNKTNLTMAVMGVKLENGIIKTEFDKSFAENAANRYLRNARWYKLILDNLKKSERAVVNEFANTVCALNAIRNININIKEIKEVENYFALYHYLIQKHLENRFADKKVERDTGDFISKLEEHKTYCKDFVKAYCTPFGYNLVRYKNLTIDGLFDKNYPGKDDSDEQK
# ASSAY REMARKS: crRNA (strand 1, pre-loaded); Mg2+; 40 mM Tris-HCl pH 7.5, 150 mM NaCl, 6 mM MgCl2, 1 mM DTT, 0.1% Tween-20, 0.2 mg/ml BSA; 25 C; 10 min per concentration, then washed
# CONDITIONS USED: tags: His6-TwinStrep-SUMO cleaved; N-terminal SNAP kept (SNAP-Surface 488); label: 3' end held by stalled T7 RNA polymerase
pKd: −log10 of the molar value.

>  <BINDER>
target 1 insA 3' of 10,insC 3' of 5 (mixed) RNA 1: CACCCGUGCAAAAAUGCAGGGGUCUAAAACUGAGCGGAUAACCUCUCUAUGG RNA 2: GGGAAUGGAUCCACAUCUACGAAUUCGUACCAUAGAGAGGUUAAUCCGCCUCACCGAGAUCGGAAGAGCACACGU

>  <pKd>
8.00

$$$$
>  <BINDER>
target 3 C6G,A11G (mixed) RNA 1: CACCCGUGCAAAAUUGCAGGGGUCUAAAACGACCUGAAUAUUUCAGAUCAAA RNA 2: GGGAAUGGAUCCACAUCUACGAAUUCGUUUUUGAUCUGAAGUAUUGAGGUCUGCAGAUCGGAAGAGCACACGU

>  <pKd>
7.22

$$$$
>  <BINDER>
target 2 MT 5'PFS GGU 3'PFS CUC (mixed) RNA 1: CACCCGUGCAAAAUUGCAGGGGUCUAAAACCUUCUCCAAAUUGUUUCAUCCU RNA 2: GGGAAUGGAUCCACAUCUACGAAUUCGGUAGGAUGAAACAAUUUGGAGAAGCUCAGAUCGGAAGAGCACACGU

>  <pKd>
7.75

$$$$
>  <BINDER>
target 2 MT 5'PFS GUC 3'PFS UAC (mixed) RNA 1: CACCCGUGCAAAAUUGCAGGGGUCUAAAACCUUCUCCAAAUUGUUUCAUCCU RNA 2: GGGAAUGGAUCCACAUCUACGAAUUCGUCAGGAUGAAACAAUUUGGAGAAGUACAGAUCGGAAGAGCACACGU

>  <pKd>
7.82

$$$$
>  <BINDER>
target 1 insG 3' of 14,insC 3' of 1 (mixed) RNA 1: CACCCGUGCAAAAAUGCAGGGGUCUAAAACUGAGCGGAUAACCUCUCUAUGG RNA 2: GGGAAUGGAUCCACAUCUACGAAUUCGUACCAUAGAGAGGGUUAUCCGCUCACCCGAGAUCGGAAGAGCACACGU

>  <pKd>
7.98

$$$$
>  <BINDER>
target 1 MT 5'PFS UCG 3'PFS AAU (mixed) RNA 1: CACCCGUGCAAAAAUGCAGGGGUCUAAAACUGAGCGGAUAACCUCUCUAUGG RNA 2: GGGAAUGGAUCCACAUCUACGAAUUCUCGCCAUAGAGAGGUUAUCCGCUCAAAUAGAUCGGAAGAGCACACGU

>  <pKd>
7.52

$$$$
>  <BINDER>
target 3 insU 3' of 16,insC 3' of 4 (mixed) RNA 1: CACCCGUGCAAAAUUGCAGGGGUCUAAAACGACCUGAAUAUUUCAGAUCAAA RNA 2: GGGAAUGGAUCCACAUCUACGAAUUCGUUUUUGAUCUUGAAAUAUUCAGCGUCUGCAGAUCGGAAGAGCACACGU

>  <pKd>
7.07

$$$$
>  <BINDER>
target 1 C7A,A16G (mixed) RNA 1: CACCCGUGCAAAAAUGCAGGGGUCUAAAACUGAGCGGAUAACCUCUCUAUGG RNA 2: GGGAAUGGAUCCACAUCUACGAAUUCGUACCAUAGGGAGGUUAUACGCUCACCGAGAUCGGAAGAGCACACGU

>  <pKd>
7.52

$$$$
>  <BINDER>
target 3 G4A,U22C (mixed) RNA 1: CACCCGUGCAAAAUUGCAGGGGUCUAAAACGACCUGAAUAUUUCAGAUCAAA RNA 2: GGGAAUGGAUCCACAUCUACGAAUUCGUUCUUGAUCUGAAAUAUUCAAGUCUGCAGAUCGGAAGAGCACACGU

>  <pKd>
8.15

$$$$
>  <BINDER>
target 1 MT 5'PFS GCU 3'PFS UUU (mixed) RNA 1: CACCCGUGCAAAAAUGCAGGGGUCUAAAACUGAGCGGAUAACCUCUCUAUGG RNA 2: GGGAAUGGAUCCACAUCUACGAAUUCGCUCCAUAGAGAGGUUAUCCGCUCAUUUAGAUCGGAAGAGCACACGU

>  <pKd>
7.62

$$$$
>  <BINDER>
target 2 MT 5'PFS CUG 3'PFS CGU (mixed) RNA 1: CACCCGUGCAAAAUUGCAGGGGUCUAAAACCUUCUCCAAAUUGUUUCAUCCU RNA 2: GGGAAUGGAUCCACAUCUACGAAUUCCUGAGGAUGAAACAAUUUGGAGAAGCGUAGAUCGGAAGAGCACACGU

>  <pKd>
8.41

$$$$
>  <BINDER>
target 3 insG 3' of 22,insG 3' of 5 (mixed) RNA 1: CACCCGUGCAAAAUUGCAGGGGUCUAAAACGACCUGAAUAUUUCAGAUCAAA RNA 2: GGGAAUGGAUCCACAUCUACGAAUUCGUUUGUUGAUCUGAAAUAUUCAGGGUCUGCAGAUCGGAAGAGCACACGU

>  <pKd>
7.38

$$$$
>  <BINDER>
target 3 U2A,U7C (mixed) RNA 1: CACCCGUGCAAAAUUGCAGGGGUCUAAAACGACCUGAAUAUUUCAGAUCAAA RNA 2: GGGAAUGGAUCCACAUCUACGAAUUCGUUUUUGAUCUGAAAUAUCCAGGACUGCAGAUCGGAAGAGCACACGU

>  <pKd>
7.42

$$$$
>  <BINDER>
target 1 insU 3' of 9,insU 3' of 7 (mixed) RNA 1: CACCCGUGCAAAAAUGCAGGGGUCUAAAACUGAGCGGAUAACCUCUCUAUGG RNA 2: GGGAAUGGAUCCACAUCUACGAAUUCGUACCAUAGAGAGGUUAUUCUCGCUCACCGAGAUCGGAAGAGCACACGU

>  <pKd>
7.60

$$$$
>  <BINDER>
target 2 MT 5'PFS AAC 3'PFS AAU (mixed) RNA 1: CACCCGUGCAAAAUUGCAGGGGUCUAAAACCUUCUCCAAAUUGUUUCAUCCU RNA 2: GGGAAUGGAUCCACAUCUACGAAUUCAACAGGAUGAAACAAUUUGGAGAAGAAUAGAUCGGAAGAGCACACGU

>  <pKd>
8.21

$$$$
